Experiment: yeast display, Sf9 membrane polyspecificity reagent, FACS + sequencing; frameworks hold sequencing errors
Measured attribute: polyreactivity (PSR sort gate)

QVQLVESGGGLVQAGGSLRLSCAASGLTFRYYTMGWYRQAPGKERELVASINIRGGSTYYADSVKGRFTISRDNAKNTVYLQMNSLKAEDTSVYYCNNRYGFSFGYWGQGTQVTVSS: high polyreactivity
QVQLVESGGGLVQAGGSLRLSCAAAGFIFRYYAMGWYRPAPGKVRELVAAITNSGVSTYYADSVKGRFTISRDNAKNTVYLQMNRLKPEDTAVYYCAATYRTRTSQYDYWGQGTQVTVSS: high polyreactivity
QVQLVESGGGLVQAGGSLRLSCAASGRTFLYYAMGWYRQSPGKERELVAAINRSGRTYYADSVKGRFTISRDNAKNTVYLQMNSLKPEDTAVYYCAADTRYPYRAYDYWGQGTQVTVSS: high polyreactivity
